System: KB-3-1
procedure details: Cytotoxic Profiling of Annotated Libraries Using Quantitative High-Throughput Screening (AID 1296008); also: % is scaled to controls: 0 for no effect and ±100 for the full control effect
setup conditions: Five cell lines viability, CellTiter-Glo ATP luminescence, 48-72 h; stronger effect = lower value
Results filed as inconclusive are left out.
measure: max response (%)
One number for each entry, in %.

INSERT INTO assay_data (compound, measure, measured) VALUES
  ('CCOC(=O)[C@H](CCc1ccccc1)CC1(C(=O)N[C@H]2CCc3ccccc3N(CC(=O)O)C2=O)CCCC1', 'max response', -2.38),
  ('COc1cc(C2Oc3c(OC)cc(CCCO[C@@H]4O[C@H](CO)[C@@H](O)[C@H](O)[C@H]4O)cc3C2CO)ccc1O (stereo partly specified)', 'max response', 1.37),
  ('CC1=C(C)C(=O)OC(C(C)C2C(O)CC3C4C5OC5C5(O)CC(OC6OC(CO)C(O)C(O)C6O)CC(O)C5(C)C4CCC32C)C1 (stereo unspecified)', 'max response', 0.502),
  ('COc1cc(O[C@@H]2O[C@H](CO)[C@@H](O)[C@H](O)[C@H]2O)c(CCC(=O)OC[C@H]2O[C@@H](Oc3cc(OC)c(C4OC(=O)C(C)(O)C4O)cc3CCC(=O)O)[C@H](O)[C@@H](O)[C@@H]2O)cc1C1OC(=O)C(C)(O)C1O (stereo partly specified)', 'max response', 9.44),
  ('COc1cc(/C=C/C(=O)OC2CC(OC(C)=O)C(OC(C)=O)C3C2CCC2C(=O)OC(c4ccoc4)CC23C)ccc1O[C@@H]1O[C@H](CO)[C@@H](O)[C@H](O)[C@H]1O (stereo partly specified)', 'max response', -0.283);

**Query** Identify max response associated with the compound CN(C)c1cccc(-c2c3c(=O)n(-c4ccccc4Cl)[nH]c3cc(=O)n2C)c1
**Result** 5.47

----------
procedure details: Cell Proliferation Assay against the HBL1 Cell Line (AID 651646);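 also: cells exposed to compound for 48 h before reading; 100% = DMSO and 0% = 9.2 µM bortezomib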
setup conditions: HBL1 DLBCL cells; at 46.1 µM (top of the series) unless noted
*1 amine or outer side, *2 acyl side, *3 side chain or, on linkers, in order; H or OH if unused. Where a SMILES comes first, the peptide text is derived from it. Bridges are numbered along the chain shown (N, C = ends). Roman numbers before positions name the chains, in order. [ ]: non-standard residue; d: D form. ξ: configuration not given here. Actinocin(9to1) = Cc1c2oc3c(C)ccc(C(=O)[*:1])c3nc-2c(C(=O)[*:2])c(N)c1=O; ξNMeV = CNC(C(=O)O)C(C)C; ξV = CC(C)C(N)C(=O)O; Sar = CNCC(=O)O
measure: viability, percent of control (%)
Answers are plain numbers, in %.

INSERT INTO results (compound, readout_unit, measured) VALUES
  ('CN(NC(=O)CC(=O)NN(C)C(=S)c1ccccc1)C(=S)c1ccccc1', '%', 60.8);

Here are 3 compounds. What values of viability, percent of control were reported for them?
1. O=C(O)CC/C=C\CC[C@H]1[C@@H](N2CCCCC2)[C@@H](O)C[C@@H]1OCc1ccc(-c2ccccc2)cc1
2. Cc1nnc(C(C)C)n1C1CC2CCC(C1)N2CC[C@H](NC(=O)C1CCC(F)(F)CC1)c1ccccc1 (stereo partly drawn)
3. COC(=O)C1=C(C)NC(C)=C(C(=O)OCCCN2CCC(c3ccccc3)(c3ccccc3)CC2)[C@H]1c1cccc([N+](=O)[O-])c1

**Result**
[105, 87.3, 1.4]

Here are 2 compounds. What values of viability, percent of control were reported for them?
1. Cc1c2oc3c(C)ccc(C(=O)N[C@@H]4C(=O)NC(C(C)C)C(=O)N5CCC[C@H]5C(=O)N(C)CC(=O)N(C)C(C(C)C)C(=O)O[C@@H]4C)c3nc-2c(C(=O)N[C@@H]2C(=O)NC(C(C)C)C(=O)N3CCC[C@H]3C(=O)N(C)CC(=O)N(C)C(C(C)C)C(=O)O[C@@H]2C)c(N)c1=O (stereo partly drawn) (I: T[ξV]P[Sar][ξNMeV] / II: T[ξV]P[Sar][ξNMeV]; ester I:1-I:C, II:1-II:C; linker I:N-II:N via Actinocin(9to1))
2. C[C@@H]1CCN(C(=O)CC#N)C[C@@H]1N(C)c1ncnc2[nH]ccc12

**Result**
[21.5, 97.5]
